Test system: SW948
experiment-notes: Cell growth inhibition (CellTiter-Glo), colon cancer line SW948
Format: cell-based
observed-property: IC50

Identify IC50 associated with the compound Cc1sc2c(c1C)C(c1ccc(Cl)cc1)=N[C@@H](CC(=O)NCCCCNC(=O)COc1cccc3c1C(=O)N(C1CCC(=O)NC1=O)C3=O)c1nnc(C)n1-2 (stereo partly shown) [dBET1, reference compound] > 5 µM

###

Test system: A549
experiment-notes: Cell growth inhibition (CellTiter-Glo), NSCLC line A549
Type: cell-based
stated-conditions: Homo sapiens, 96 h; A549 non-small cell lung cancer cell line, 4 days
Method: Cell growth inhibitory activity of representative BET bromodomain degraders in representative non-small cell lung cancer cell lines was determined using the CellTiter-Glo® Luminescent Cell Viability Assay. […] Cell viability was determined using the CellTiter-Glo® Luminescent Cell Viability Assay Kit (Promega, Madison, Wis.) according to the manufacture's instruction. […] The luminescent signal was measured using a Tecan Infinite M1000 multimode microplate reader (Tecan, Morrisville, N.C.). […]
Catalogue of pIC50 readings, one per entry.
Just the number, please; pIC50 means minus log10 of the concentration in mol/L.

compound: CCn1nc(C2CC2)cc1Nc1nc(C(=O)NCCCCNc2cccc3c2C(=O)N(C2CCC(=O)NC2=O)C3=O)nc2[nH]c3cc(-c4c(C)noc4C)c(OC)cc3c12 (stereo not drawn) [Cpd. No. 9]
quantitative-readout: 6.80

Identify pIC50 associated with the compound CCn1nc(C2CC2)cc1Nc1nc(COC)nc2[nH]c3cc(-c4c(C)noc4C)c(OC)cc3c12 [Cpd. A, reference compound] 7.70

Identify pIC50 associated with the compound CCn1nc(C2CC2)cc1Nc1nc(C(=O)NCCCOCCOCCOCCCNc2cccc3c2C(=O)N(C2CCC(=O)NC2=O)C3=O)nc2[nH]c3cc(-c4c(C)noc4C)c(OC)cc3c12 (stereo not drawn) [Cpd. No. 4] 6.92

###

Tested on: CALU6
experiment-notes: Cell growth inhibition (CellTiter-Glo), NSCLC line CALU6
Format: cell-based
stated-conditions: Homo sapiens, Calu-6, 96 h; CALU6 non-small cell lung cancer cell line, 4 days
Experimental: Cell growth inhibitory activity of representative BET bromodomain degraders in representative non-small cell lung cancer cell lines was determined using the CellTiter-Glo® Luminescent Cell Viability Assay. […] Cell viability was determined using the CellTiter-Glo® Luminescent Cell Viability Assay Kit (Promega, Madison, Wis.) according to the manufacture's instruction. […] The luminescent signal was measured using a Tecan Infinite M1000 multimode microplate reader (Tecan, Morrisville, N.C.). […]
observed-property: IC50 (nM)
Reply with just the number (in nM).

compound: CCn1nc(C2CC2)cc1Nc1nc(C(=O)NCCCCNc2cccc3c2C(=O)N(C2CCC(=O)NC2=O)C3=O)nc2[nH]c3cc(-c4c(C)noc4C)c(OC)cc3c12 (stereo not drawn)
observed-property: IC50
units-symbol: nM
quantitative-readout: 33

compound: CCn1nc(C2CC2)cc1Nc1nc(COC)nc2[nH]c3cc(-c4c(C)noc4C)c(OC)cc3c12 [Cpd. A, reference compound]
observed-property: IC50
units-symbol: nM
quantitative-readout: 630

Identify IC50 associated with the compound CCn1nc(C2CC2)cc1Nc1nc(C(=O)NCCCOCCOCCOCCCNc2cccc3c2C(=O)N(C2CCC(=O)NC2=O)C3=O)nc2[nH]c3cc(-c4c(C)noc4C)c(OC)cc3c12 (stereo not drawn) 9

###

Tested on: HCC1937
experiment-notes: Cell growth inhibition (CellTiter-Glo), breast cancer line HCC1937
Type: cell-based
stated-conditions: 4 days
observed-property: IC50

Identify IC50 associated with the compound Cc1sc2c(c1C)C(c1ccc(Cl)cc1)=N[C@@H](CC(=O)NCCCCNC(=O)COc1cccc3c1C(=O)N(C1CCC(=O)NC1=O)C3=O)c1nnc(C)n1-2 (stereo partly shown) [dBET1, reference compound] > 5 µM

###

Catalogue of IC50 readings, one per entry.
System: MDA-MB-157
experiment-notes: Cell growth inhibition (CellTiter-Glo), breast cancer line MDA-MB-157
Type: cell-based
stated-conditions: Homo sapiens, 96 h; MDA-MB-157 breast cancer cell line, 4 days
Experimental: Cell growth inhibitory activity of representative BET bromodomain degraders in representative breast cancer cell lines was determined using the CellTiter-Glo® Luminescent Cell Viability Assay. […] Cell viability was determined using the CellTiter-Glo® Luminescent Cell Viability Assay Kit (Promega, Madison, Wis.) according to the manufacture's instruction. […] The luminescent signal was measured using a Tecan Infinite M1000 multimode microplate reader (Tecan, Morrisville, N.C.). […]

compound: CCn1nc(C2CC2)cc1Nc1nc(COC)nc2[nH]c3cc(-c4c(C)noc4C)c(OC)cc3c12 [Cpd. A, reference compound]
IC50: 860 nM

Identify IC50 associated with the compound CCn1nc(C2CC2)cc1Nc1nc(C(=O)NCCCOCCOCCOCCCNc2cccc3c2C(=O)N(C2CCC(=O)NC2=O)C3=O)nc2[nH]c3cc(-c4c(C)noc4C)c(OC)cc3c12 (centres unmarked) 2 nM

###

System: SW48
experiment-notes: Cell growth inhibition (CellTiter-Glo), colon cancer line SW48
Assay type: cell-based
observed-property: IC50 (nM)
Reply with just the number (in nM).

Identify IC50 associated with the compound Cc1sc2c(c1C)C(c1ccc(Cl)cc1)=N[C@@H](CC(=O)NCCCCNC(=O)COc1cccc3c1C(=O)N(C1CCC(=O)NC1=O)C3=O)c1nnc(C)n1-2 (stereo partly shown) [dBET1, reference compound] 2780

###

Tested on: H2228
experiment-notes: Cell growth inhibition (CellTiter-Glo), NSCLC line H2228
Format: cell-based
stated-conditions: Homo sapiens, NCI-H2228, 96 h; H2228 non-small cell lung cancer cell line, 4 days
observed-property: pIC50
Just the number, please; pIC50 means minus log10 of the concentration in mol/L.

Reference set (2 entries):
compound: CCn1nc(C2CC2)cc1Nc1nc(COC)nc2[nH]c3cc(-c4c(C)noc4C)c(OC)cc3c12 [Cpd. A, reference compound]
target: H2228
observed-property: pIC50
quantitative-readout: 5.62
//
compound: CCn1nc(C2CC2)cc1Nc1nc(C(=O)NCCCOCCOCCOCCCNc2cccc3c2C(=O)N(C2CCC(=O)NC2=O)C3=O)nc2[nH]c3cc(-c4c(C)noc4C)c(OC)cc3c12 (stereo not drawn)
target: H2228
observed-property: pIC50
quantitative-readout: 6.76

Below: the item to evaluate.
Report its pIC50 with H2228 as the test system: CCn1nc(C2CC2)cc1Nc1nc(C(=O)NCCCCNc2cccc3c2C(=O)N(C2CCC(=O)NC2=O)C3=O)nc2[nH]c3cc(-c4c(C)noc4C)c(OC)cc3c12 (stereo not drawn) 6.21

###

Tested on: SW1412
experiment-notes: Cell growth inhibition (CellTiter-Glo), colon cancer line SW1412
Assay type: cell-based
Catalogue of IC50 readings, one per entry.
Reply with just the number (in nM).

Reference set (2 entries):
molecule: CCn1nc(C2CC2)cc1Nc1nc(COC)nc2[nH]c3cc(-c4c(C)noc4C)c(OC)cc3c12 [Cpd. A, reference compound]
IC50 (nM): 40
--
molecule: CCn1nc(C2CC2)cc1Nc1nc(C(=O)NCCCCNc2cccc3c2C(=O)N(C2CCC(=O)NC2=O)C3=O)nc2[nH]c3cc(-c4c(C)noc4C)c(OC)cc3c12 (stereo not shown) [Cpd. No. 9]
IC50 (nM): 34

Below: the item to evaluate.
Identify IC50 associated with the molecule CCn1nc(C2CC2)cc1Nc1nc(C(=O)NCCCOCCOCCOCCCNc2cccc3c2C(=O)N(C2CCC(=O)NC2=O)C3=O)nc2[nH]c3cc(-c4c(C)noc4C)c(OC)cc3c12 (stereo not shown) [Cpd. No. 4] 9

###

System: Lovo
experiment-notes: Cell growth inhibition (CellTiter-Glo), colon cancer line Lovo
Assay type: cell-based
observed-property: IC50

Report its IC50 with Lovo as the test system: Cc1sc2c(c1C)C(c1ccc(Cl)cc1)=N[C@@H](CC(=O)NCCCCNC(=O)COc1cccc3c1C(=O)N(C1CCC(=O)NC1=O)C3=O)c1nnc(C)n1-2 (stereo partly shown) [dBET1, reference compound] > 5 µM

###

System: HBL-100
experiment-notes: Cell growth inhibition (CellTiter-Glo), breast cancer line HBL-100
Type: cell-based
stated-conditions: Homo sapiens, 96 h; HBL-100 breast cancer cell line, 4 days
Catalogue of IC50 readings, one per entry.
Reply with just the number (in nM).

compound: CCn1nc(C2CC2)cc1Nc1nc(C(=O)NCCCOCCOCCOCCCNc2cccc3c2C(=O)N(C2CCC(=O)NC2=O)C3=O)nc2[nH]c3cc(-c4c(C)noc4C)c(OC)cc3c12 (centres unmarked) [Cpd. No. 4]
units-symbol: nM
IC50: 4

Identify IC50 associated with the compound CCn1nc(C2CC2)cc1Nc1nc(COC)nc2[nH]c3cc(-c4c(C)noc4C)c(OC)cc3c12 [Cpd. A, reference compound] 100
